# maps each entry to its EC50 (read off the curve)
Target: T1, Human AXL-Fc (R&D Systems, #154-AL) (human, UniProt P30530 26-451)
T1 construct: Bought reagent; also called human AXL-Fc fusion protein; human AXL-Fc protein; not shown: Fc part of the bought fusion protein
T1 sequence: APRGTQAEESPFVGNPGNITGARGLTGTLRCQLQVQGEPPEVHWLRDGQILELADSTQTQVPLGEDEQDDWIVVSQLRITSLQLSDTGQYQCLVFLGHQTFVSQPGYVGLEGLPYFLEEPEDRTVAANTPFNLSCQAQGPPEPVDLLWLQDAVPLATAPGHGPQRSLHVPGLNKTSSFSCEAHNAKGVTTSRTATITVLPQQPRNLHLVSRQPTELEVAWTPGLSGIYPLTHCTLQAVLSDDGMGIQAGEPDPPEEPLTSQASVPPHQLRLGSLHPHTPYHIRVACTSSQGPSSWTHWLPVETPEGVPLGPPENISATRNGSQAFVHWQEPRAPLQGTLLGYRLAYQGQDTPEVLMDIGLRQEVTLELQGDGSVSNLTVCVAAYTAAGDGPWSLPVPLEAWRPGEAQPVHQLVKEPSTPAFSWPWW
Assay: ELISA on plate-adsorbed human AXL-Fc (1 ug/ml), 5-fold antibody dilution series, AP-conjugated goat anti-human IgG, fluorescent substrate (Example 14)
valueType: EC50 (read off the curve)

[
  {
    "binder": "chimeric anti-AXL antibody ch11D5-IgG1 (antibody, V domains shown, Rat/human chimera, human IgG1/kappa; also called chm11D5; human chimeric antibody) VH: EVQLQESGPGLVKPSQSLSLTCSVTGYSITSNYWGWIRKFPGNKMEWIGHITNSGNTTYNPSLKSRISISRDTSRNQFFLQLNSVTTEDTATYYCAKGAFDYWGQGVMVTVSS VL: DIQMTQSPSSMSTSLGDRVTITCRASQDIGNYLSWFQQKVGKSPRRMIYGAIKLAVGVPSRFSGSRSGSDYSLTISSLESEDMAIYYCLQYIQFPLTFGSGTKLELKR",
    "valueType": "EC50 (read off the curve)",
    "obsValue": "~0.01 µg/mL"
  },
  {
    "binder": "h#11D5-T4 (antibody, human IgG1, kappa, V domains shown, Humanized IgG1/kappa) VH: QVQLQQWGAGLLKPSETLSLTCTVSGYSITSNYWGWIRQPPGKGLEWIGHITNSGNTTYNPSLKSRVTISRDTSKNQFSLKLSSVTAADTAVYYCAKGAFDYWGQGTLVTVSS VL: DIQMTQSPSSLSASVGDRVTITCRASQDIGNYLSWYQQKPGKAPKRLIYGAIKLAVGVPSRFSGSGSGTEFTLTISSLQPEDFATYYCLQYIQFPLTFGGGTKVEIKR",
    "valueType": "EC50 (read off the curve)",
    "obsValue": "~0.01 µg/mL"
  },
  {
    "binder": "h#11D5-T2 (antibody, human IgG1, kappa, V domains shown, Humanized IgG1/kappa) VH: EVQLQESGPGLVKPSQTLSLTCTVSGYSITSNYWGWIRQPPGMGLEWIGHITNSGNTTYNPSLKSRISISVDTSENQFSLKLSSVTPADTAVYYCAKGAFDYWGQGTLVTVSS VL: DIQMTQSPSSLSASVGDRVTITCRASQDIGNYLSWFQQKPGKAPRLMIYGAIKLAVGVPSRFSGSGSGTDYTLTISSLQPEDFATYYCLQYIQFPLTFGQGTKLEIKR",
    "valueType": "EC50 (read off the curve)",
    "obsValue": "~0.01 µg/mL"
  },
  {
    "binder": "h#11D5-T1 (antibody, human IgG1, kappa, V domains shown, Humanized antibody of rat #11D5 made from pEF6KCL/h#11D5-T1L and pEF1/FCCU/h#11D5-T1H; also called T1 (humanized #11D5)) VH: QVQLQESGPGLVKPSQTLSLTCTVSGYSITSNYWGWIRQPPGMGLEWIGHITNSGNTTYNPSLKSRVTISVDTSENQFSLKLSSVTPADTAVYYCAKGAFDYWGQGTLVTVSS VL: DVQMTQSPSSLSASVGDRVTITCRASQDIGNYLSWYQQKPGKAPKLLIYGAIKLAVGVPSRFSGSGSGTDFTLTISSLQPEDFATYYCLQYIQFPLTFGQGTKLEIKR",
    "valueType": "EC50 (read off the curve)",
    "obsValue": "~0.02 µg/mL"
  },
  {
    "binder": "h#11D5-T3 (antibody, human IgG1, kappa, V domains shown, Humanized IgG1/kappa) VH: EVQLQESGPGLVKPSQTLSLTCTVSGYSITSNYWGWIRKFPGNKMEWIGHITNSGNTTYNPSLKSRISISRDTSKNQFSLKLSSVTPADTAVYYCAKGAFDYWGQGTLVTVSS VL: DIQMTQSPSSLSASVGDRVTITCRASQDIGNYLSWFQQKVGKSPRRMIYGAIKLAVGVPSRFSGSRSGSDYTLTISSLQPEDFAIYYCLQYIQFPLTFGSGTKLEIKR",
    "valueType": "EC50 (read off the curve)",
    "obsValue": "~0.02 µg/mL"
  }
]
